PROCEDURE_TEXT: in vivo
SETUP_CONDITIONS: Sprague-Dawley, rat, plasma, po, 3 mg/kg
For each record, write down the corresponding log10 concentration at 4 h.
Form field - Quantity: concentration at 4 h; Unit: ng/mL; Scale: log10

The following compounds have reported results that may help.
| COMPOUND | log10 concentration at 4 h |
| --- | --- |
| O=C(O)c1cc(F)c2nc(N3CCC(F)(COCc4c(-c5c(F)cccc5Cl)noc4C4CC4)CC3)sc2c1 | 1.98 |
| CCn1cc(C(=O)O)c2ccc(N3CCC(F)(COCc4c(-c5c(F)cccc5Cl)noc4C4CC4)CC3)cc21 | 1.69 |

Consider the following items and state reported log10 concentration at 4 h for each.
1. CCn1c(C(=O)O)cc2ccc(N3CCC(F)(COCc4c(-c5c(Cl)cccc5Cl)noc4C4CC4)CC3)cc21
2. Cn1cc(C(=O)O)c2ccc(N3CCC(OCc4c(-c5c(Cl)cccc5Cl)noc4C4CC4)CC3)cc21 [TERN-101]
3. O=C(O)c1cc(F)c2nc(N3C4CCC3CC(F)(COCc3c(-c5ccccc5OC(F)(F)F)noc3C3CC3)C4)sc2c1 (stereo not given)

1. 1.10
2. 1.72
3. 2.22

----------
Provide the recorded concentration at 4 h for the entries that follow.
PROCEDURE_TEXT: in vivo
SETUP_CONDITIONS: Sprague-Dawley, rat, liver, po, 3 mg/kg

Answer for every listed entry: what is its concentration at 4 h? The entries follow.
1. O=C(O)c1cc(F)c2nc(N3C4CCC3CC(F)(COCc3c(-c5ccccc5OC(F)(F)F)noc3C3CC3)C4)sc2c1 (stereo not given)
2. O=C(O)c1cc(F)c2nc(N3CCC(F)(COCc4c(-c5c(F)cccc5Cl)noc4C4CC4)CC3)sc2c1
3. Cn1cc(C(=O)O)c2ccc(N3CCC(OCc4c(-c5c(Cl)cccc5Cl)noc4C4CC4)CC3)cc21 [TERN-101]

1. 612 ng/mL
2. 929 ng/mL
3. 153 ng/mL

// for each compound in input: emit concentration at 4 h
1. CCn1c(C(=O)O)cc2ccc(N3CCC(F)(COCc4c(-c5c(Cl)cccc5Cl)noc4C4CC4)CC3)cc21
2. CCn1cc(C(=O)O)c2ccc(N3CCC(F)(COCc4c(-c5c(F)cccc5Cl)noc4C4CC4)CC3)cc21

1: 186 ng/mL; 2: 772 ng/mL

----------
PROCEDURE_TEXT: in vivo
SETUP_CONDITIONS: Sprague-Dawley, rat, po, 3 mg/kg
MEASURE_NAME: Cmax
Report field: quantity (unit follows the number).

Consider the reported Cmax for these molecules:
| MOLECULE | Cmax |
| --- | --- |
| Cn1cc(C(=O)O)c2ccc(N3CCC(OCc4c(-c5c(Cl)cccc5Cl)noc4C4CC4)CC3)cc21 | 283 ng/mL |
| CCn1cc(C(=O)O)c2ccc(N3CCC(F)(COCc4c(-c5c(F)cccc5Cl)noc4C4CC4)CC3)cc21 | 117 ng/mL |

Could you share which Cmax value was measured for O=C(O)c1cc(F)c2nc(N3C4CCC3CC(F)(COCc3c(-c5ccccc5OC(F)(F)F)noc3C3CC3)C4)sc2c1 (stereo not drawn) ?
590 ng/mL

----------
PROCEDURE_TEXT: in vivo
SETUP_CONDITIONS: Sprague-Dawley, rat, plasma, po, 3 mg/kg
MEASURE_NAME: concentration at 1 h (ng/mL)
Answers are plain numbers, in ng/mL.

Hi, could you look up concentration at 1 h for each item in my list?
1. Cn1cc(C(=O)O)c2ccc(N3CCC(OCc4c(-c5c(Cl)cccc5Cl)noc4C4CC4)CC3)cc21
2. O=C(O)c1cc(F)c2nc(N3C4CCC3CC(F)(COCc3c(-c5ccccc5OC(F)(F)F)noc3C3CC3)C4)sc2c1 (stereo not given)

[19.3, 1140]

The following compounds each have a reported value; give each one's concentration at 1 h.
1. CCn1cc(C(=O)O)c2ccc(N3CCC(F)(COCc4c(-c5c(F)cccc5Cl)noc4C4CC4)CC3)cc21
2. O=C(O)c1cc(F)c2nc(N3CCC(F)(COCc4c(-c5c(F)cccc5Cl)noc4C4CC4)CC3)sc2c1
3. CCn1c(C(=O)O)cc2ccc(N3CCC(F)(COCc4c(-c5c(Cl)cccc5Cl)noc4C4CC4)CC3)cc21

1. 24
2. 241
3. 6.3
